# assayed.target: ATP-binding cassette sub-family C member 2 (Rattus norvegicus, UniProt Q63120)
# Sequence (Q63120 whole entry): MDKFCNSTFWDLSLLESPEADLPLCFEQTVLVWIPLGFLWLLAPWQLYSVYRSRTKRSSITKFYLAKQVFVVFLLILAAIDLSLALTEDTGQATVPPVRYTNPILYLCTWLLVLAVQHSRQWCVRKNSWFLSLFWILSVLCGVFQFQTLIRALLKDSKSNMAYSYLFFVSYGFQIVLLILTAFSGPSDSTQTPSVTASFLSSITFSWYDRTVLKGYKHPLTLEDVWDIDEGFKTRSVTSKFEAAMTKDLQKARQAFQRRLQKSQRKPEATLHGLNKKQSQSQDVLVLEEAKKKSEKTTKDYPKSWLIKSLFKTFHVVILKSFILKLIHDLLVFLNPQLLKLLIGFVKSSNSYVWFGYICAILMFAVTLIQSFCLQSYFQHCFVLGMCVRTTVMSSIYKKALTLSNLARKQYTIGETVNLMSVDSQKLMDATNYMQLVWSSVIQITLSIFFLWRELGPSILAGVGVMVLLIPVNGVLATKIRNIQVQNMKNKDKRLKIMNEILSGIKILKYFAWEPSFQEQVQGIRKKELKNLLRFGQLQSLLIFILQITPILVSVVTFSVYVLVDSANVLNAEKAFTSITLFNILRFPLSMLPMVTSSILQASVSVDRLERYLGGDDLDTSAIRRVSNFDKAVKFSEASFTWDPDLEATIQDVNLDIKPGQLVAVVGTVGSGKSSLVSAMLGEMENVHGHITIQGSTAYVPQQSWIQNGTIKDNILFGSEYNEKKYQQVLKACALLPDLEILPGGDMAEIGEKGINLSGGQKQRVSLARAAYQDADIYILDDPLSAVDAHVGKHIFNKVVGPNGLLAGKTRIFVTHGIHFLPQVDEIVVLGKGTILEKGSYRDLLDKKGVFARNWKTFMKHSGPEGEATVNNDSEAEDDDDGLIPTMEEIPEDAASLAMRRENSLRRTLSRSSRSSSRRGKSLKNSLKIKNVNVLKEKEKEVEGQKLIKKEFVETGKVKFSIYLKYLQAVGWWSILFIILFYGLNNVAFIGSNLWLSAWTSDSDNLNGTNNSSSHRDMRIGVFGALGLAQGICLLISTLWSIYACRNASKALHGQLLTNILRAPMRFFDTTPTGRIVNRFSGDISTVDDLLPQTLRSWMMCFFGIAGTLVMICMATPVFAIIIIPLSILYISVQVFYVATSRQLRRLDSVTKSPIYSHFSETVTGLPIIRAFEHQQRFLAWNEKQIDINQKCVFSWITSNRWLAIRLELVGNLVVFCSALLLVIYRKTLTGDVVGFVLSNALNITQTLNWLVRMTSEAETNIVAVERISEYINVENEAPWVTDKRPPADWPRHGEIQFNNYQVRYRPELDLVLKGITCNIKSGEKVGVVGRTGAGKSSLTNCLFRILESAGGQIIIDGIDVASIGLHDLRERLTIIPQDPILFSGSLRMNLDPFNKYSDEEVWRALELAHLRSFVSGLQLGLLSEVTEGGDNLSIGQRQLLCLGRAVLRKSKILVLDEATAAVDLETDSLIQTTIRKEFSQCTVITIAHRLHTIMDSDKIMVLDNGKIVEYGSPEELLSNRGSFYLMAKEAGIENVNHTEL
# assay.info: TP_TRANSPORTER: inhibition of DNP-SG uptake in bile canalicular membrane vesicles from SD rat
# Type: functional, cell membranes, Sprague-Dawley, Bile canalicular membrane vesicle
experimental.readout: Ki (µM)
Give the value in µM but do not write µM after it.

Lookup result for CN(Cc1cnc2nc(N)nc(N)c2n1)c1ccc(C(=O)N[C@@H](CCC(=O)O)C(=O)O)cc1 [METHOTREXATE] ; measured Ki: 236

====

Measured pKi, listed per entry.
# assayed.target: ATP-binding cassette sub-family C member 2 (Rattus norvegicus)
# assay.info: TP_TRANSPORTER: inhibition of L-MTX uptake in bile canalicular membrane vesicles from SD rat
# Assay type: functional, cell membranes, Sprague-Dawley, Bile canalicular membrane vesicle
Units for pKi: none; it is -log10 of a concentration expressed in mol/L.

Lookup result for CN(Cc1cnc2nc(N)nc(N)c2n1)c1ccc(C(=O)N[C@@H](CCC(=O)O)C(=O)O)cc1 [METHOTREXATE] ; measured pKi: 3.49

Lookup result for CN(Cc1cnc2nc(N)nc(N)c2n1)c1ccc(C(=O)N[C@H](CCC(=O)O)C(=O)O)cc1 ; measured pKi: 4.03
